- Test system: HEK293T
- experiment: plasma membrane surface immunostaining intensity (anti-HA, deep receptor scanning) (arbitrary fluorescence units); higher = higher plasma membrane expression
- conditions: GPCR class: A
experimental-endpoint: plasma membrane surface immunostaining intensity

seq_text="MNEDLKVNLSGLPRDYLDAAAAENISAAVSSRVPAVEPEPELVVNPWDIVLCTSGTLISCENAIVVLIIFHNPSLRAPMFLLIGSLALADLLAGIGLITNFVFAYLLQSEATKLVTIGLIVASFSASVCSLLAITVDRYLSLYYALTYHSERTVTFTYVMLVMLWGTSICLGLLPVMGWNCLRDESTCSVVRPLTKNNAAILSVSFLFMFALMLQLYIQICKIVMRHAHQIALQHHFLATSHYVTTRKGVSTLAIILGTFAACWMPFTLYSLIADYTYPSIYTYATLLPATYNSIINPVIYAFRNQEIQKALCLICCGCIPSSLAQRARSPSDV [GPR12]" target_under_test=HEK293T recorded_value=1260
seq_text="MEGISIYTSDNYTEEMGSGDYDSMKEPCFREENANFNKIFLPTIYSIIFLTGIVGNGLVILVMGYQKKLRSMTDKYRLHLSVADLLFVITLPFWAVDAVANWYFGNFLCKAVHVIYTVNLYSSVLILAFISLDRYLAIVHATNSQRPRKLLAEKVVYVGVWIPALLLTIPDFIFANVSEADDRYICDRFYPNDLWVVVFQFQHIMVGLILPGIVILSCYCIIISKLSHSKGHQKRKALKTTVILILAFFACWLPYYIGISIDSFILLEIIKQGCEFENTVHKWISITEALAFFHCCLNPILYAFLGAKFKTSAQHALTSVSRGSSLKILSKGKRGGHSSVSTESESSSFHSS [CXCR4]" target_under_test=HEK293T recorded_value=814

* * *

- System: HEK293T
- experiment: plasma membrane surface immunostaining intensity (anti-HA, deep receptor scanning) (arbitrary fluorescence units); higher = higher plasma membrane expression
- conditions: GPCR class: A (Olfactory)
experimental-endpoint: plasma membrane surface immunostaining intensity

seq_text="MELWNFTLGSGFILVGILNDSGSPELLCATITILYLLALISNGLLLLAITMEARLHMPMYLLLGQLSLMDLLFTSVVTPKALADFLRRENTISFGGCALQMFLALTMGGAEDLLLAFMAYDRYVAICHPLTYMTLMSSRACWLMVATSWILASLSALIYTVYTMHYPFCRAQEIRHLLCEIPHLLKVACADTSRYELMVYVMGVTFLIPSLAAILASYTQILLTVLHMPSNEGRKKALVTCSSHLTVVGMFYGAATFMYVLPSSFHSTRQDNIISVFYTIVTPALNPLIYSLRNKEVMRALRRVLGKYMLPAHSTL [OR2AG1]" target_under_test=HEK293T recorded_value=135
seq_text="MERGNQTEVGNFLLLGFAEDSDMQLLLHGLFLSMYLVTIIGNLLIILTISSDSHLHTPMYFFLSNLSFADICFTSTTVPKMLVNIQTQSKMITFAGCLTQIFFFIAFGCLDNLLLTMTAYDRFVAICYPLHYTVIMNPRLCGLLVLGSWCISVMGSLLETLTILRLSFCTNMEIPHFFCDPSEVLKLACSDTFINNIVMYFVTIVLGVFPLCGILFSYSQIFSSVLRVSARGQHKAFSTCGSHLSVVSLFYGTGLGVYLSSAVTPPSRTSLAASVMYTMVTPMLNPFIYSLRNKDMKGSLGRLLLRATSLKEGTIAKLS [OR7C2]" target_under_test=HEK293T recorded_value=131
seq_text="MEGNKTWITDITLPRFQVGPALEILLCGLFSAFYTLTLLGNGVIFGIICLDCKLHTPMYFFLSHLAIVDISYASNYVPKMLTNLMNQESTISFFPCIMQTFLYLAFAHVECLILVVMSYDRYADICHPLRYNSLMSWRVCTVLAVASWVFSFLLALVPLVLILSLPFCGPHEINHFFCEILSVLKLACADTWLNQVVIFAACVFILVGPLCLVLVSYLRILAAILRIQSGEGRRKAFSTCSSHLCVVGLFFGSAIVTYMAPKSRHPEEQQKVLSLFYSLFNPMLNPLIYSLRNAEVKGALRRALRKERLT [OR2A14]" target_under_test=HEK293T recorded_value=121
seq_text="MAWENQTFNSDFLLLGIFNHSPTHTFLFFLVLAIFSVAFMGNSIMVLLIYLDTQLHTPMYFLLSQLSLMDLMLICTTVPKMAFNYLSGSKSISMAGCATQIFFYISLLGSECFLLAVMSYDRYTAICHPLRYTNLMRPKICGLMTAFSWILGSTDGIIDAVATFSFSYCGSREIAHFCCDFPSLLILSCNDTSIFEEVIFICCIVMLVFPVAIIITSYARVILAVIHMGSGEGRRKAFTTCSSHLMVVGMYYGAGLFMCIQPTSHHSPMQDKMVSVFYTIVTPMLNPLIYSLRNKEVTRALMKILGKGKSGD [OR2M7]" target_under_test=HEK293T recorded_value=157
seq_text="MAEMNLTLVTEFLLIAFTEYPEWALPLFLLFLFMYLITVLGNLEMIILILMDHQLHAPMYFLLSHLAFMDVCYSSITVPQMLAVLLEHGAALSYTRCAAQFFLFTFFGSIDCYLLALMAYDRYLAVCQPLLYVTILTQQARLSLVAGAYVAGLISALVRTVSAFTLSFCGTSEIDFIFCDLPPLLKLTCGESYTQEVLIIMFAIFVIPASMVVILVSYLFIIVAIMGIPAGSQAKTFSTCTSHLTAVSLFFGTLIFMYLRGNSDQSSEKNRVVSVLYTEVIPMLNPLIYSLRNKEVKEALRKILNRAKLS [OR9Q1]" target_under_test=HEK293T recorded_value=422
